# STUDY SYSTEM: SARS-COV-2 RBD extracellular domain expressed with a C-terminal myc-myc-hexahistidine tag (SARS-CoV-2)
# TEST: SPR (Biacore), mAb captured by anti-human Fc, RBD-mmH in solution, 25 C
Examples of binders with documented koff follow.
Unit s⁻¹ implied. Number only.

BINDER | RESULT NUMBER
mAb13458 (antibody, V domains shown) VH: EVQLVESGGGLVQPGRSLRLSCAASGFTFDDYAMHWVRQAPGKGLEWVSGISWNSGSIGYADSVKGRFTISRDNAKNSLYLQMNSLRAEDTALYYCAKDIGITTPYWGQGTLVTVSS VL: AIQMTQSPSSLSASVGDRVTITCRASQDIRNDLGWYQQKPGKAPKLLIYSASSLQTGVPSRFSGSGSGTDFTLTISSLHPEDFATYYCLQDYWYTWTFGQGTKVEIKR | 0.00139
mAb14234 (antibody, V domains shown) VH: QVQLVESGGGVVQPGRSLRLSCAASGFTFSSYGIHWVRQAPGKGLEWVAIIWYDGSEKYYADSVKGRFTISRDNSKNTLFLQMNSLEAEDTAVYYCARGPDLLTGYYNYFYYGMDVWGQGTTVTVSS VL: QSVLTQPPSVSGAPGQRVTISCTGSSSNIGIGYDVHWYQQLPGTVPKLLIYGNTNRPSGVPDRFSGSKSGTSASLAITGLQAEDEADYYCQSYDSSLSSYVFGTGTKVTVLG | 0.0113

# input Look up koff for this binder: mAb14257 (antibody, V domains shown) VH: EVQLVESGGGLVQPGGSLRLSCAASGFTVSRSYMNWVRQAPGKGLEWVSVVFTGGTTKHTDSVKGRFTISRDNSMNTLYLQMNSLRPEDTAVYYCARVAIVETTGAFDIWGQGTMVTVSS VL: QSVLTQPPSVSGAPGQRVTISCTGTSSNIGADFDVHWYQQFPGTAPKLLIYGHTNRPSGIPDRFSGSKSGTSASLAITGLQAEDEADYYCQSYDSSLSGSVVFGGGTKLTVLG
# output 0.00952

# input Look up koff for this binder: mAb14294 (antibody, V domains shown) VH: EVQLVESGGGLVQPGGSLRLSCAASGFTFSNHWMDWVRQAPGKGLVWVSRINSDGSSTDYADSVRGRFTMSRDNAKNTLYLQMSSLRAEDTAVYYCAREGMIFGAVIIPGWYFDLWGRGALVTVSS VL: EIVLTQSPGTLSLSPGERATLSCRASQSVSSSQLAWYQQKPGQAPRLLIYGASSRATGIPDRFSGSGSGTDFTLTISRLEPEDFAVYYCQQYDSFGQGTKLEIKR
# output 0.000548

# input Look up koff for this binder: mAb14255 (antibody, V domains shown) VH: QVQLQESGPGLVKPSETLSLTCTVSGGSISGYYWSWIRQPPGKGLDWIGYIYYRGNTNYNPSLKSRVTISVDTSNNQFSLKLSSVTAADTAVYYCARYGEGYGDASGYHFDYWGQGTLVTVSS VL: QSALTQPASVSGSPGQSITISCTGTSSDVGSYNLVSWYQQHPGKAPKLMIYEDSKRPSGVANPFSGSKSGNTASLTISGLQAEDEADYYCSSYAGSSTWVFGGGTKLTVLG
# output 0.00499

# input Look up koff for this binder: mAb14235 (antibody, V domains shown) VH: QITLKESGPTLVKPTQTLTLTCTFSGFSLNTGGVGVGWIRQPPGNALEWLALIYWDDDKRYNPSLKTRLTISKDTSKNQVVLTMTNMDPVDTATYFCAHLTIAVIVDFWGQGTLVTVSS VL: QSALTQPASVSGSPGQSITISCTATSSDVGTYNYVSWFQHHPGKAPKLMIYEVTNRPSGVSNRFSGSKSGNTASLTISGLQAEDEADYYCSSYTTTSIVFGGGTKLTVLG
# output 0.00105

# input Look up koff for this binder: mAb14284 (antibody, V domains shown) VH: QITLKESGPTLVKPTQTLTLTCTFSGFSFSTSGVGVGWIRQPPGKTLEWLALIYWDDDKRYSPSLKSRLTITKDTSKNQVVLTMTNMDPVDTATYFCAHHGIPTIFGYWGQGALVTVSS VL: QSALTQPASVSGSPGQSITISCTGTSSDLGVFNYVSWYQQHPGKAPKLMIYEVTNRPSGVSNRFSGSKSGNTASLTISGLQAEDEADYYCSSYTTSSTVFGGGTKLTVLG
# output 0.000549
